Entry source: patent EP2747783B1

- testSystem: human c-Met, cell membrane expressed (A549, BxPC-3, myeloma cells) (human, UniProt P08581 25-1390)
- Sequence (P08581 25-1390 limits assumed, form in doubt): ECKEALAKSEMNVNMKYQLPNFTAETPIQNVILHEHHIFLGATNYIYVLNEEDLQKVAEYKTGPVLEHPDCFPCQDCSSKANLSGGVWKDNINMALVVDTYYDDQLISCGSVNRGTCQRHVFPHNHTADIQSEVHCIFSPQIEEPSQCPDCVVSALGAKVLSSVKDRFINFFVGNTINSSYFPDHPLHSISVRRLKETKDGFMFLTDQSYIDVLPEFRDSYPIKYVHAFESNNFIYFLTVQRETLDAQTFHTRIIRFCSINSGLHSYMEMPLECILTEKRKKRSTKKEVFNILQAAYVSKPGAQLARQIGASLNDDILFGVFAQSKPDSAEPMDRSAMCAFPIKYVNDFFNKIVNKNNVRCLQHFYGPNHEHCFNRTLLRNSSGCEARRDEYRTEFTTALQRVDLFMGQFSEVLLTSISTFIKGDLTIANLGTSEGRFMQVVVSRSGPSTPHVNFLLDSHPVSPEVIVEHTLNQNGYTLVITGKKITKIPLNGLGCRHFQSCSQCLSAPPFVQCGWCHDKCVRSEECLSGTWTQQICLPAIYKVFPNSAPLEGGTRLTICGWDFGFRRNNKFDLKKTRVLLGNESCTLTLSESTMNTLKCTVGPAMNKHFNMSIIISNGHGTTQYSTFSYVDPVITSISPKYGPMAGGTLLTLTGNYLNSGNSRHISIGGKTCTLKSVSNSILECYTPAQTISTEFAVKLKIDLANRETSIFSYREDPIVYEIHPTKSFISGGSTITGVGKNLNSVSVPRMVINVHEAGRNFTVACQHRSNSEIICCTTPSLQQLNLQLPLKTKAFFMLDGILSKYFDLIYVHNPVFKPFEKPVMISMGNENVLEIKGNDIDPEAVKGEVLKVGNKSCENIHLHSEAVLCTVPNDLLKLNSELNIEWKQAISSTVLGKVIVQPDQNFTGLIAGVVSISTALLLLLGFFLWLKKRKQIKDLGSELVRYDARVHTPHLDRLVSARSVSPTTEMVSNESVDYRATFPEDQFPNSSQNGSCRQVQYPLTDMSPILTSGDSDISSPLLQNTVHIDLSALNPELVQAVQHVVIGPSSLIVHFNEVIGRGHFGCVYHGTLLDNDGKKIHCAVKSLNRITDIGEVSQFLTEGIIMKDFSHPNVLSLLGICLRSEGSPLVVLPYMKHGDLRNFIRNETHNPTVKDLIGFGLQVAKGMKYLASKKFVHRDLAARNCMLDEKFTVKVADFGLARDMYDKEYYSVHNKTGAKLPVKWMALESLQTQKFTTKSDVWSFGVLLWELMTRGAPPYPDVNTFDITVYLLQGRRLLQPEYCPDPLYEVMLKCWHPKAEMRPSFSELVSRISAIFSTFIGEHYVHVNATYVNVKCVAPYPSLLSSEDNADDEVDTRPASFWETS
- assayMethodText: cell-based or functional assay
observationType: IC50, c-Met phosphorylation (nM)
API: value field is a number in nM; no unit string.

Examples with answers:
(Q) Give reported IC50, c-Met phosphorylation value for A007901248 (VHH) VHH: EVQLVESGGGLVQPGGSLRLSCAASGFAFDDYAIGWFRQAPGKEREGVSSISSTYGLTYYADSVKGRFTISSDNSKNTVYLQMNSLRPEDTAVYYCAATPIGLIGLDAYEYDYWGQGTLVTVSS
(A) 11.5

(Q) Give reported IC50, c-Met phosphorylation value for A007901245 (VHH) VHH: EVQLVESGGGLVQPGGSLRLSCAASGFTFDDYAIGWFRQAPGEEREGVSSISSTYGLTYYADSVKGRFTISSDNSKNTVYLQMNSLRPEDTAVYYCAATPIGLIGLDAYEYDYWGQGTLVTVSS
(A) 5.41

(Q) Give reported IC50, c-Met phosphorylation value for A007901247 (VHH) VHH: EVQLVESGGGLVQPGGSLRLSCAASGFTFDDYAIGWFRQAPGKEREGVSSISSTYGLTYYADSVKGRFTISSDNSKNTVYLQMNSLRPEDTAVYYCAATPIGLIGLDAYEYDYWGQGTLVTVSS
(A) 12.8

(Q) Give reported IC50, c-Met phosphorylation value for A007901249 (VHH) VHH: EVQLVESGGGLVQPGGSLRLSCAASGFTFDDYAIGWFRQAPGEERLGVSSISSTYGLTYYADSVKGRFTISSDNSKNTVYLQMNSLRPEDTAVYYCAATPIGLIGLDAYEYDYWGQGTLVTVSS
(A) 2.81

(Q) Give reported IC50, c-Met phosphorylation value for A007901246 (VHH) VHH: EVQLVESGGGLVQPGGSLRLSCAASGFAFDDYAIGWFRQAPGEEREGVSSISSTYGLTYYADSVKGRFTISSDNSKNTVYLQMNSLRPEDTAVYYCAATPIGLIGLDAYEYDYWGQGTLVTVSS
(A) 3.44

Next:
(Q) Give reported IC50, c-Met phosphorylation value for A007901252 (VHH) VHH: EVQLVESGGGLVQPGGSLRLSCAASGFAFDDYAIGWFRQAPGKERLGVSSISSTYGLTYYADSVKGRFTISSDNSKNTVYLQMNSLRPEDTAVYYCAATPIGLIGLDAYEYDYWGQGTLVTVSS
(A) 4.16
